- testTarget: Glucocorticoid receptor (Homo sapiens)
- Sequence (P04150 whole entry): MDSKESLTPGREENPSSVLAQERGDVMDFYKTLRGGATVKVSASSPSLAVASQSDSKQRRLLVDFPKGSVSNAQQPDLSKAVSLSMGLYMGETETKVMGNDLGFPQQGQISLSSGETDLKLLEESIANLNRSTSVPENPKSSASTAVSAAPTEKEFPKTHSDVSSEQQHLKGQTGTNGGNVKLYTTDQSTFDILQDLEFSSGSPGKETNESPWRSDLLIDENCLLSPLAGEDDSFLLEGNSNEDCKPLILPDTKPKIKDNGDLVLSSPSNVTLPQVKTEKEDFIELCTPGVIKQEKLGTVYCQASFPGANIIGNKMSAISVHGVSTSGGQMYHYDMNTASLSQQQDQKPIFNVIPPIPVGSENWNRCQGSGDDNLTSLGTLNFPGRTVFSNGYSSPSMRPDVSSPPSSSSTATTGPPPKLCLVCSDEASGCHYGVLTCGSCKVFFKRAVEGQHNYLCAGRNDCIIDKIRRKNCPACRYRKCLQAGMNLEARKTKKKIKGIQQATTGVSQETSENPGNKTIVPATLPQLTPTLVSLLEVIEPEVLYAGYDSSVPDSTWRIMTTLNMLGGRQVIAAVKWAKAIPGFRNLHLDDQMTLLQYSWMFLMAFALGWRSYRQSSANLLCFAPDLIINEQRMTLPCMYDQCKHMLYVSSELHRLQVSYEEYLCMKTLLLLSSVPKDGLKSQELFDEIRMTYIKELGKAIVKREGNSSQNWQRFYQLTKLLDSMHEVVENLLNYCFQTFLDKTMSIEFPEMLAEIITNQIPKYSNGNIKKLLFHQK
propertyMeasured: Ki (nM)
I only need the number, in nM, no unit after it.

For orientation, consider the following solved cases.
CC1=CC(C)(C)Nc2ccc3c(c21)C(C)Oc1ccc(F)cc1-3 (centres undefined): 749
CCCCC1Oc2ccccc2-c2ccc3c(c21)C(C)=CC(C)(C)N3 (centres undefined): 813
CCCCC1Oc2ccc(OC)cc2-c2ccc3c(c21)C(C)=CC(C)(C)N3 (centres undefined): 130

As a next step, examine the molecule that follows.
Fill in the recorded Ki for this molecule, with Glucocorticoid receptor (Homo sapiens) as test system: CCCCC1Oc2ccc(Cl)cc2-c2ccc3c(c21)C(C)=CC(C)(C)N3 (centres undefined)
394
